# Protocol description: UV-Vis absorption and fluorescence spectroscopy of the Oxazine library
# Format: physicochemical
Attribute: Max Ex
Return type: number; implicit unit nm.

Recorded results for 3 compounds are shown here.
{"columns": ["Compound", "Max Ex, nm"],
 "data": [
  ["c1cc2nc3ccc(=[N+]4CCCCC4)cc-3oc2cc1N1CCCCC1 [LGW04-91]", 665],
  ["CC/N=c1/cc2oc3cc(N)ccc3nc-2cc1C [LGW06-97]", 600],
  ["CCCNc1cc2oc3cc(=[N+](CC)CC)ccc-3nc2cc1C [LGW04-31]", 640]
]}

Prompt line: Request the reported Max Ex associated with CC[N+](CC)=c1ccc2nc3ccc(N4CCCC4)cc3oc-2c1 [LGW03-07]
Response line: 660

Prompt line: Look up Max Ex for this compound: Cc1cc2nc3cc(C)c(=N)cc-3oc2cc1N [LGW06-14]
Response line: 590

Prompt line: Which measured Max Ex value corresponds to CC/N=c1/cc2oc3cc(N(C)C)ccc3nc-2cc1C [LGW04-36] ?
Response line: 635

Prompt line: Entry CC/N=c1/cc2oc3cc4c(cc3nc-2cc1C)CCCN4 [LGW03-12] has what Max Ex?
Response line: 630

Prompt line: Would you kindly share the measured Max Ex for CC/N=c1/cc2oc3cc4c(cc3nc-2cc1C)C(C)=CC(C)(C)N4CC [LGW03-57] ?
Response line: 665

Prompt line: I'd like to know its Max Ex. The compound in question is CCCNc1cc2oc3c/c(=N/CC)c(C)cc-3nc2cc1C [LGW04-32]
Response line: 620

Prompt line: Which measured Max Ex value corresponds to CC/N=c1/cc2oc3cc4c(cc3nc-2cc1C)C(C)=CC(C)(C)N4 [LGW01-44] ?
Response line: 650

---

Listed compounds paired with reported Max Em
# Protocol description: UV-Vis absorption and fluorescence spectroscopy of the Oxazine library
# Type: physicochemical
Please state the figure in nm; there is no need to write the unit.

Check out these entries, answers already filled in.
{"columns": ["Compound", "Parameter", "Unit descriptor", "Value observed"],
 "data": [
  ["CC[N+](CC)=c1ccc2nc3ccc(N4CCCC4)cc3oc-2c1", "Max Em", "nm", 672],
  ["CC/N=c1\\ccc2nc3ccc(NCC)cc3oc-2c1", "Max Em", "nm", 634],
  ["CCN(CC)c1cc2oc3cc(=[N+](CC)CC)ccc-3nc2cc1C", "Max Em", "nm", 690],
  ["CC/N=c1/cc2oc3cc(N4CCCC4)ccc3nc-2cc1C", "Max Em", "nm", 661],
  ["CCNc1cc2oc3cc(=[N+](CC)CC)ccc-3nc2cc1F", "Max Em", "nm", 661]
]}

As a next step, examine the compound that follows.
Prompt line: What value of Max Em has been recorded for this entry: CCN(CC)c1ccc2nc3ccc(=[N+](CC)CC)cc-3oc2c1.[O-][Cl+3]([O-])([O-])[O-] [OX-1, reference compound]
Response line: 671

---

# Protocol description: UV-Vis absorption and fluorescence spectroscopy of the Oxazine library
# Assay type: physicochemical
# Assay setup: Beer's Law plots
Listed next: entries and their corresponding Extinction coefficient.
Please reply with the bare figure in M⁻¹ cm⁻¹ and do not write the unit itself.

Before answering, review these 5 worked examples.
{"columns": ["Compound", "Value observed"],
 "data": [
  ["CC/N=c1/cc2oc3cc(N4CCCCC4)ccc3nc-2cc1C [LGW03-21]", 36049],
  ["CCN1CCCc2cc3nc4ccc(=[N+](CC)CC)cc-4oc3cc21 [LGW02-92]", 43659],
  ["CC/N=c1/cc2oc3cc(NCC)c(Cl)cc3nc-2cc1C [LGW05-42]", 41527],
  ["C/N=c1/cc2oc3cc(NC)c(C)cc3nc-2cc1C [LGW01-61]", 21783],
  ["CC/N=c1/cc2oc3cc4c(cc3nc-2cc1C)CCN4 [LGW05-85]", 45382]
]}

Prompt line: Need Extinction coefficient, item c1c2c(cc3c1N=c1cc4c(cc1O3)=NCC4)NCC2 [LGW07-55]
Response line: 20163

Prompt line: Quick one: Extinction coefficient for CCN=c1cc2oc3cc(NCC)c(C)cc3nc-2cc1C.[O-][Cl+3]([O-])([O-])O [OX-4, reference compound] ?
Response line: 77156

Prompt line: Which Extinction coefficient is listed for CC/N=c1/cc2oc3cc(N)ccc3nc-2cc1C [LGW06-97] ?
Response line: 38616

---

# Protocol description: UV-Vis absorption and fluorescence spectroscopy of the Oxazine library
# Format: physicochemical
Parameter: Max Em (nm)
Please state the figure in nm; there is no need to write the unit.

{"columns": ["Smiles entry", "Parameter", "Value observed"],
 "data": [
  ["CC/N=c1/cc2oc3cc(NCC)c(F)cc3nc-2cc1F", "Max Em", 626],
  ["CCN1c2cc3c(cc2C(C)=CC1(C)C)N=c1cc2c(cc1O3)=[N+](CC)C(C)(C)C=C2C", "Max Em", 718],
  ["CC[N+](CC)=c1ccc2nc3cc4c(cc3oc-2c1)NCCC4", "Max Em", 659],
  ["CCN1CCCc2cc3c(cc21)Oc1cc2c(cc1=N3)CCC[N+]=2CC", "Max Em", 675],
  ["CCCNc1cc2oc3cc(=[N+](CC)CC)ccc-3nc2cc1C", "Max Em", 661]
]}

Prompt line: What does the record list as Max Em for c1cc2nc3ccc(=[N+]4CCCCC4)cc-3oc2cc1N1CCCCC1 ?
Response line: 689

Prompt line: Give the measured Max Em of CCN1CCc2cc3nc4ccc(=[N+](CC)CC)cc-4oc3cc21 .
Response line: 675

Prompt line: Can you share its Max Em? I mean this compound: CCNc1cc(C)c2nc3ccc(=[N+](CC)CC)cc-3oc2c1
Response line: 658

Prompt line: Consider the compound CCN1CCOc2cc3nc4ccc(=[N+](CC)CC)cc-4oc3cc21 and give its measured Max Em.
Response line: 684

Prompt line: Entry CC[N+](CC)=c1ccc2nc3cc4c(cc3oc-2c1)NCCO4 : reported Max Em = ?
Response line: 670

Prompt line: I am curious: what Max Em value has been reported for c1c2c(cc3c1N=c1cc4c(cc1O3)=NCC4)NCC2 ?
Response line: 634

Prompt line: Quick check: Max Em of c1cc2nc3ccc(=[N+]4CCCC4)cc-3oc2cc1N1CCCC1 ?
Response line: 674

---

# Protocol description: UV-Vis absorption and fluorescence spectroscopy of the Oxazine library
# Format: physicochemical
# Method: All reagents were purchased from Sigma Aldrich, Fisher Scientific, TCI, or Ark Pharm. Unless otherwise indicated, all commercially available starting materials were used directly without further purification. Analytical thin layer chromatography (TLC) was performed on Millipore ready-to-use plates with silica gel 60 (F254, 32-63 μm). […] Ions were detected in positive ion mode by setting the capillary voltage at 4 kV and gas temperature at 350° C. […] UV-Vis Absorption and Fluorescence Spectroscopy. […]
Documented Max Ex across a set of molecules
Answer format: numeric, nm implied, no suffix.

Worked set:
{"columns": ["Smiles entry", "Max Ex / nm"],
 "data": [
  ["CC/N=c1\\ccc2nc3ccc(NCC)cc3oc-2c1", 620],
  ["CCN1CCOc2cc3c(cc21)Oc1cc2c(cc1=N3)OCC[N+]=2CC", 660],
  ["c1c2c(cc3c1Oc1cc4c(cc1=N3)OCCN=4)OCCN2", 630],
  ["CC/N=c1/cc2oc3cc(N4CCCC4)ccc3nc-2cc1C", 640],
  ["CCN1c2cc3oc4cc(=[N+](CC)CC)ccc-4nc3cc2C(C)=CC1(C)C", 680],
  ["CC[N+](CC)=c1ccc2nc3cc4c(cc3oc-2c1)NCC4", 640],
  ["c1c2c3c(c4c1N=c1cc5c6c(c1O4)CCC[N+]=6CCC5)CCCN3CCC2", 680],
  ["CCN1c2cc3c(cc2C(C)=CC1(C)C)N=c1cc2c(cc1O3)=[N+](CC)C(C)(C)C=C2C", 710]
]}

Now let's try a different one.
Prompt line: Could you tell me which Max Ex is on file for CC[N+](CC)=c1ccc2nc3cc4c(cc3oc-2c1)NCCC4 ?
Response line: 645

---

# Protocol description: UV-Vis absorption and fluorescence spectroscopy of the Oxazine library
# Assay type: physicochemical
Parameter: Max Abs (nm)
Unit nm implied. Number only.

These solved cases illustrate the format of a correct answer.
{"columns": ["Compound", "Unit descriptor", "Max Abs"],
 "data": [
  ["c1c2c3c(c4c1N=c1cc5c6c(c1O4)CCC[N+]=6CCC5)CCCN3CCC2 [LGW02-87]", "nm", 678],
  ["CC[N+](CC)=c1ccc2nc3ccc(N4CCCC4)cc3oc-2c1 [LGW03-07]", "nm", 654],
  ["c1c2c(cc3c1N=c1cc4c(cc1O3)=NCC4)NCC2 [LGW07-55]", "nm", 619],
  ["CC/N=c1/cc2oc3cc4c(cc3nc-2cc1C)CCN4CC [LGW05-76]", "nm", 628],
  ["CC/N=c1/cc2oc3cc(N)ccc3nc-2cc1C [LGW06-97]", "nm", 599],
  ["CCN1c2cc3c(cc2C(C)=CC1(C)C)N=c1cc2c(cc1O3)=[N+](CC)C(C)(C)C=C2C [LGW05-66]", "nm", 701],
  ["CCN1CCOc2cc3c(cc21)Oc1cc2c(cc1=N3)OCC[N+]=2CC [LGW05-73]", "nm", 657],
  ["CC/N=c1/cc2oc3cc4c(cc3nc-2cc1C)C(C)=CC(C)(C)N4 [LGW01-44]", "nm", 648],
  ["CC/N=c1/cc2oc3cc4c(cc3nc-2cc1C)C(C)=CC(C)(C)N4CC [LGW03-57]", "nm", 661]
]}

Prompt line: I have this compound here, CC/N=c1/cc2oc3cc(NCC)c(F)cc3nc-2cc1F [LGW05-91] , and I need its recorded Max Abs.
Response line: 606

Reference source: patent US11492359B2
